system: HOP-92; assay: NCI tumour cell line growth inhibition, 48 h
Calls of active or inactive are those of the source. Cut-off read from the data, not from the text of the source: active = GI50 up to about 1.1 µM and inactive = higher.
Entry note: the call must match one of active, inactive

Please review the following examples before continuing.
{"columns": ["compound", "qualitative.label"],
 "data": [
  ["CC1(C)OC(=O)C(c2cccs2)C(=O)O1", "inactive"],
  ["CC(C)(C)/C(O)=C\\c1nc2ccc(C(F)(F)F)cc2[nH]c1=O", "inactive"],
  ["O=C(O)C1C(C(=O)O)C23CC2(C(=O)O)C2(C(=O)O)CCC3=C3CCCC312 (stereo unspecified)", "inactive"],
  ["CC(=O)c1ccc(/N=N/c2ccc3nonc3c2N)cc1", "inactive"],
  ["O=C1COc2ccc([N+](=O)[O-])cc2C(=O)C1", "active"]
]}

Field: next compound
Recorded test outcome, item Brc1c2nc3ccccc3nc2n2ccc3ccccc3c12
inactive

* * *

tested on: SNB-19; assay: NCI tumour cell line growth inhibition, 48 h
Where a name gives a salt, the structure may show the parent alone. Calls of active or inactive are those of the source. Cut-off read from the data, not from the text of the source: active = GI50 up to about 1.1 µM and inactive = higher.
observable: GI50

{"columns": ["compound", "target.or.system", "observable", "assay.result"],
 "data": [
  ["CC(=O)N(O)CCCCCNC(=O)CCC(=O)N(O)CCCCCNC(=O)CCC(=O)N(O)CCCCCN [DEFEROXAMINE HYDROCHLORIDE]", "SNB-19", "GI50", "51.6 µM (inactive)"],
  ["O=c1c(C(c2cc(OCc3ccccc3)cc(OCc3ccccc3)c2)c2c(O)oc3ccccc3c2=O)c(O)oc2ccccc12", "SNB-19", "GI50", "3.74 µM (inactive)"],
  ["CN1CCc2cc3c4cc2C1Cc1ccc(cc1)Oc1cc(ccc1O)CC1c2c(cc(O)c(c2O4)O3)CCN1C (stereo not given)", "SNB-19", "GI50", "2.83 µM (inactive)"],
  ["O=C1OC(c2ccccc2)=N/C1=C/N1CCCC1C(=O)O (stereo not given)", "SNB-19", "GI50", "> 100 µM (inactive)"]
]}

Per the record, CSC1=C(C#N)C(=O)N(c2ccc(C)cc2)C(=S)C1C#N (stereo not given) has GI50 of > 100 µM (inactive)

* * *

test system: UACC-257; test: NCI tumour cell line growth inhibition, 48 h
Activity calls are given as the source filed them. Rule as the data show it: active = GI50 up to about 1.1 µM and inactive = higher.
List of GI50 values.

Here is how some compounds turned out for GI50.
{"columns": ["compound", "target.or.system", "GI50"],
 "data": [
  ["CN(c1n[n+]2c(-c3ccccc3)csc2s1)c1n[n+]2c(-c3ccccc3)csc2s1", "UACC-257", "> 100 µM (inactive)"],
  ["COc1ccc(CCN2CCN(CCc3ccc(OC)cc3)CC2)cc1", "UACC-257", "> 100 µM (inactive)"],
  ["CCCCn1c(CSc2ccc(Cl)cc2)c(C(=O)OCC)c2cc(OC)c(Br)cc21", "UACC-257", "> 100 µM (inactive)"],
  ["CSCCC(NC(c1ccccc1)c1ccccc1)[PH](=O)O (stereo unspecified)", "UACC-257", "> 100 µM (inactive)"],
  ["Cc1cc2c(=O)c(C)n[nH]c2c(C#N)c1C", "UACC-257", "> 100 µM (inactive)"]
]}

Entry O=C1NC(=O)C2(CCc3ccc(N(CCCl)CCCl)cc32)N1 (stereo unspecified) , tested on UACC-257, has a reported GI50 of 16.4 µM (inactive)

Observed GI50 on UACC-257, entry CC(=O)OCc1ccc2c(c1)C(O)NC(=O)O2 (stereo unspecified) , equals > 100 µM (inactive)

Measured GI50 (UACC-257), entry Oc1ccccc1C(c1cc2c(cc1O)OCO2)N1CCOCC1 (stereo unspecified) : 19.2 µM (inactive)

Simply: Cc1ccc(S(=O)(=O)NC2C(=O)c3ccccc3C(=O)C2n2cnc3ccccc32)cc1 (stereo unspecified) , UACC-257, GI50 = 28.9 µM (inactive)

Reported GI50 (UACC-257) for entry Brc1ccc(C2=NCSC(c3ccc(Br)cc3)=N2)cc1 is 19.1 µM (inactive)

GI50 of c1ccc(CNCCCNCCCCNCCCNCc2ccccc2)cc1 , assay on UACC-257, is 15 µM (inactive)
